Data credit: paper PMC10397247

Target: T1, 4H953-bH
T1 chain: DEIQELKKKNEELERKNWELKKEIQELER
Test: two-hybrid library CCNG1;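 also: natural log of median RNA to DNA barcode read ratio; higher means stronger binding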
Below: a set of entries, each annotated with reported interaction score.
Could you keep your reply to the number by itself?

* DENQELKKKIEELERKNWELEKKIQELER [4H1845-bH] | -0.598
* DEIQELKKKNEELEREIWELKKENQELKR [4H908-bH] | -0.842
* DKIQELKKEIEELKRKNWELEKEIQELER [4H2673-bH] | -1.62

Moving on to another binder below.
Name the recorded interaction score for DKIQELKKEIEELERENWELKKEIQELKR [4H2586-bH] . 0.313
